# Assay explanation: Determination of the moisture stability of polymorphic forms of sofosbuvir and amorphous sofosbuvir (humidity chamber, XRPD before and after)
# Format: physicochemical
# Test parameters: after 18 h at 40° C./75% RH in humidity chamber; footnote: gel/gum = sample deliquesced
# Description: […] 30 mg of a given polymorphic form of sofosbuvir or of amorphous sofosbuvir prepared according to Reference Examples 1 to 4 were analyzed via XRPD as described in Reference Example 6. Then, these polymorphic forms of sofosbuvir or of amorphous sofosbuvir were exposed to an atmosphere having a relative humidity (RH) of 75% and a temperature of 40° C. for 18 hours in a humidity chamber and analyzed via XRPD as described in Reference Example 6. […]
Parameter: Visual aspect, sample after storage at 40° C./75% RH for 18 h

Molecule | Endpoint value
CC(C)OC(=O)[C@H](C)N[P@](=O)(OC[C@H]1O[C@@H](n2ccc(=O)[nH]c2=O)[C@](C)(F)[C@@H]1O)Oc1ccccc1 [Form 6] | white powder
CC(C)OC(=O)[C@H](C)N[P@](=O)(OC[C@H]1O[C@@H](n2ccc(=O)[nH]c2=O)[C@](C)(F)[C@@H]1O)Oc1ccccc1 [Form 7] | white powder
CC(C)OC(=O)[C@H](C)N[P@](=O)(OC[C@H]1O[C@@H](n2ccc(=O)[nH]c2=O)[C@](C)(F)[C@@H]1O)Oc1ccccc1 [Form 1] | gel/gum*^)
CC(C)OC(=O)[C@H](C)N[P@](=O)(OC[C@H]1O[C@@H](n2ccc(=O)[nH]c2=O)[C@](C)(F)[C@@H]1O)Oc1ccccc1 [Amorphous] | gel/gum*^)

----------
# Assay explanation: Determination of the moisture stability of polymorphic forms of sofosbuvir and amorphous sofosbuvir (humidity chamber, XRPD before and after)
# Format: physicochemical
# Test parameters: after 18 h at 40° C./75% RH in humidity chamber
# Procedure: […] 30 mg of a given polymorphic form of sofosbuvir or of amorphous sofosbuvir prepared according to Reference Examples 1 to 4 were analyzed via XRPD as described in Reference Example 6. Then, these polymorphic forms of sofosbuvir or of amorphous sofosbuvir were exposed to an atmosphere having a relative humidity (RH) of 75% and a temperature of 40° C. for 18 hours in a humidity chamber and analyzed via XRPD as described in Reference Example 6. […]
Parameter: XRPD analysis, sample after storage at 40° C./75% RH for 18 h

Compound | Endpoint value
CC(C)OC(=O)[C@H](C)N[P@](=O)(OC[C@H]1O[C@@H](n2ccc(=O)[nH]c2=O)[C@](C)(F)[C@@H]1O)Oc1ccccc1 [Form 1] | amorphous
CC(C)OC(=O)[C@H](C)N[P@](=O)(OC[C@H]1O[C@@H](n2ccc(=O)[nH]c2=O)[C@](C)(F)[C@@H]1O)Oc1ccccc1 [Amorphous] | amorphous

----------
# Assay explanation: Determination of the moisture stability of polymorphic forms of sofosbuvir and amorphous sofosbuvir (humidity chamber, XRPD before and after)
# Format: physicochemical
# Test parameters: before storage; 30 mg sample
Parameter: Visual aspect, sample before storage at 40° C./75% RH

Compound | Endpoint value
CC(C)OC(=O)[C@H](C)N[P@](=O)(OC[C@H]1O[C@@H](n2ccc(=O)[nH]c2=O)[C@](C)(F)[C@@H]1O)Oc1ccccc1 [Amorphous] | white powder
CC(C)OC(=O)[C@H](C)N[P@](=O)(OC[C@H]1O[C@@H](n2ccc(=O)[nH]c2=O)[C@](C)(F)[C@@H]1O)Oc1ccccc1 [Form 7] | white powder
CC(C)OC(=O)[C@H](C)N[P@](=O)(OC[C@H]1O[C@@H](n2ccc(=O)[nH]c2=O)[C@](C)(F)[C@@H]1O)Oc1ccccc1 [Form 1] | white powder
CC(C)OC(=O)[C@H](C)N[P@](=O)(OC[C@H]1O[C@@H](n2ccc(=O)[nH]c2=O)[C@](C)(F)[C@@H]1O)Oc1ccccc1 [Form 6] | white powder
